Hello, the source for this data is PubChem BioAssay (Tox21), in case you need it.

# experiment_notes: qHTS assay to identify small molecule antagonists of the estrogen related receptor (ERR) signaling pathway from Tox21 library - cell viability counter screen (AID 1224834); also: nearly all actives have a fitted effect of over 30% in size
# protocol_conditions: ERR reporter cells viability, CellTiter-Fluor, 17.5 h; series mostly up to 92.4 µM
# Method: National Center for Advancing Translational Sciences [NCATS] NIH Chemical Genomics Center [NCGC] U.S. Environmental Protection Agency [EPA] National Institutes of Environmental Health Sciences [NIEHS] National Toxicology Program [NTP] […] The ERR cells were dispensed at 2,000 cells/5 ul/well in 1536-well white plates using a Multidrop dispenser. […] After 30-minute incubation at 37 C/5% CO2, the fluorescence intensity in the plates was measured using a ViewLux plate reader.
Inconclusive results are not listed. The source made the active and inactive calls. Calls follow the shape of the dose curve; as a rule, active = well fitted cell-killing curve with a large enough effect in the repeat runs; inconclusive = weak or mixed curves; inactive = flat fitted curve, though single readings scatter.
API: response.call in active, inactive

Please indicate how the test categorized Nc1ncnc2c1ncn2[C@H]1CC[C@@H](CO)O1 .
inactive

I'd appreciate the recorded outcome for CCOC(=O)c1ccc(O)c(O)c1 from this test.
inactive

Check the results log: what was the call for CC(C)(C)C(=O)C(=O)O ?
inactive

Please indicate how the test categorized O=C(Cn1ccnc1[N+](=O)[O-])NCCO .
inactive

Tell me the recorded outcome of this test for CC(CCC(=O)O)C(=O)O (stereo not drawn) .
inactive

In this assay, the call recorded for C[C@@H](O[C@H]1OCCN(Cc2n[nH]c(=O)[nH]2)[C@H]1c1ccc(F)cc1)c1cc(C(F)(F)F)cc(C(F)(F)F)c1 was what?
active

Can you look up the reported call for C=C(C)[C@@H]1CCC2=CCC[C@@H](C)[C@]2(C)C1 for me?
inactive

Recorded test call requested for CCCCN1CCCC1C(=O)Nc1c(C)cc(C)cc1C (stereo not drawn)
inactive

What is the recorded call for this molecule in the test? Cc1ccc(C(C)(C)O)cc1
inactive

Hey, what did the test say about O=C1c2ccccc2C(=O)C1c1nc2ccccc2c(Br)c1O ?
inactive

Please state the recorded outcome for this molecule: Clc1cc(Cl)nc(Cl)n1
inactive

Entry C[C@H]1c2cccc(O)c2C(O)=C2C(=O)[C@]3(O)C(O)=C(C(N)=O)C(=O)[C@@H](N(C)C)[C@@H]3[C@@H](O)[C@@H]21 : call = ?
inactive

Which outcome was assigned to CC(C)(C)CC(=O)OCC(=O)[C@@]1(O)CC[C@H]2[C@@H]3CCC4=CC(=O)C=C[C@]4(C)[C@H]3[C@@H](O)C[C@@]21C in this test?
active

Any idea what this test logged for CN1CCCC(CC2c3ccccc3Sc3ccccc32)C1 (stereo not drawn) ?
active

Outcome logged for CC(CC1c2ccccc2CCc2ccccc21)CN(C)C (stereo not drawn) in this assay:
active

Outcome logged for c1csc(SSc2cccs2)c1 in this assay:
active

Outcome? CC(=O)c1cc2ccccc2s1
inactive

Please share the test call associated with CCCCCCCCOc1ccc(C(=O)O)cc1 .
inactive

Name the outcome recorded for CCC1(CO)COCOC1 in the assay.
inactive

Which outcome was assigned to CCCCCCCCCI in this test?
inactive

Per the assay record, what outcome was assigned to CC(=O)Oc1ccc([N+](=O)[O-])cc1CCl ?
active

Record lookup: outcome of this test for Cc1ccccc1N=C(N)Nc1ccccc1C ?
inactive

Could you check what this test reported for C=C1C[C@@]23CC[C@H]4[C@@](C)(CCC[C@@]4(C)C(=O)O[C@@H]4O[C@H](CO)[C@@H](O)[C@H](O)[C@H]4O)[C@@H]2CC[C@]1(O[C@@H]1O[C@H](CO)[C@@H](O)[C@H](O[C@@H]2O[C@H](CO)[C@@H](O)[C@H](O)[C@H]2O)[C@H]1O[C@@H]1O[C@H](CO)[C@@H](O)[C@H](O)[C@H]1O)C3 ?
inactive

====

# experiment_notes: qHTS RealTime-Glo MT Cell Viability Assay in HEK293 cells - 32 hour (AID 1224868); also: nearly all actives have a fitted effect of over 50% in size
# protocol_conditions: RealTime-Glo luminescence; series mostly up to 76.8 µM
Inconclusive results are not listed. The source made the active and inactive calls. The call rests on the fitted dose curve; in most records, active means well fitted cell-killing curve with a large enough effect in the repeat runs; inconclusive means weak or mixed curves, or effect the other way; inactive means flat fitted curve, though single readings scatter.
# valid calls are true (1) (active), false (0) (inactive); nothing else

Lab log entry: COC(=O)C1=C(C)NC(C)=C(C(=O)O[C@@H]2CCCN(Cc3ccccc3)C2)[C@@H]1c1cccc([N+](=O)[O-])c1 — outcome as called in the assay?
false (0)

Which outcome was entered for the compound CC(=O)c1cc2ccccc2s1 in this test?
false (0)

Field: outcome | Entry: C[C@@H](CN(C)C)CN1c2ccccc2Sc2ccccc21
true (1)

Hey, what did the test say about O=C(Cn1ccnc1[N+](=O)[O-])NCCO ?
false (0)

Check the results log: what was the call for CC1(C)S[C@@H]2[C@H](NC(=O)C(c3ccccc3)S(=O)(=O)O)C(=O)N2[C@H]1C(=O)O (some centres not stated) ?
false (0)

Please share the test call associated with C=C(C)C(=O)OCCOCCOC(=O)C(=C)C .
false (0)

# fetch the recorded call for O=C(OCC(O)CO)c1ccccc1Nc1ccnc2cc(Cl)ccc12 (configuration not stated) here
true (1)

Recorded test outcome, item COc1ccccc1NC(=O)c1cc2ccccc2cc1O
true (1)

Name the outcome recorded for C=C(C)[C@@H]1CCC2=CCC[C@@H](C)[C@]2(C)C1 in the assay.
false (0)

Recorded test call requested for COC(=O)CCS
false (0)

Identify the outcome logged in this assay for the compound shown: C[C@@H]1CN(CCCn2c3ccccc3c3ccccc32)C[C@H](C)N1
true (1)

// return assay outcome for Cc1ccc(C(C)(C)O)cc1
false (0)

====

# experiment_notes: qHTS assay to identify small molecule antagonists of the androgen receptor (AR) signaling pathway - cell viability counter screen (AID 743033; also: nearly all actives have a fitted effect of over 45% in size)
# protocol_conditions: AR-bla HEK293 viability, CellTiter-Glo luminescence, 16 h; series mostly up to 58.5 µM
Inconclusive results are not listed. Active and inactive are the calls of the source. The call rests on the fitted dose curve; in most records, active means well fitted cell-killing curve with a large enough effect in the repeat runs; inconclusive means weak or mixed curves; inactive means no such curve, though single readings can be large or run the other way.
Thanks in advance; please answer with one of these: active, inactive

I would be grateful if you could indicate the recorded call for CCC1CO1 (configuration not stated) .
inactive

Status in this test for CC(=O)OCCN(CCOC(C)=O)c1ccc(N=Nc2ccc([N+](=O)[O-])cc2C#N)cc1 ?
inactive

Returns: the outcome recorded for O=C(OCC(O)CO)c1ccccc1Nc1ccnc2cc(Cl)ccc12 (configuration not stated) in this assay.
inactive

How was CN1CCCC(n2nc(Cc3ccc(Cl)cc3)c3ccccc3c2=O)CC1 (configuration not stated) classified in this test?
inactive

Could you check what this test reported for CC(C)Nc1cccnc1N1CCN(C(=O)c2cc3cc(NS(C)(=O)=O)ccc3[nH]2)CC1 ?
inactive

Recorded call for COc1ccccc1NC(=O)c1cc2ccccc2cc1O ?
active

Kindly provide the recorded test outcome for the following compound: O=c1cc(-c2ccccc2)oc2ccc3ccccc3c12
active

Test call, this compound: Cc1ccco1
inactive

Each compound tested received a call. Report the one for N#CCCN(CCO)CCO .
inactive

Fill in: this test's call for Clc1ccc(Nc2nnc(Cc3ccncc3)c3ccccc23)cc1 is ___
inactive

Could you kindly confirm the outcome this assay logged for COc1cc(Nc2c(C#N)cnc3cc(OCCCN4CCN(C)CC4)c(OC)cc23)c(Cl)cc1Cl ?
active

Tell me the assay call for Cc1c(C)c2c(c(C)c1OC(=O)CCC(=O)OCCO)CC[C@@](C)(CCC[C@H](C)CCC[C@H](C)CCCC(C)C)O2 please.
inactive

Any idea what this test logged for C=C(C)C(=O)OCCCCCCCCCCCCC ?
inactive

Given C[C@@]12CCC[C@H]1[C@@H]1CC[C@H]3C[C@@H](O)CC[C@]3(C)[C@H]1CC2 , state the outcome it received in this test.
inactive

Query: recorded result category for O=C(O)CCC(=O)C(=O)O in this test
inactive

Would you mind telling me which call this test gave Clc1cc(Cl)nc(Cl)n1 ?
inactive

Hey, what did the test say about CCCCN1CCCC1C(=O)Nc1c(C)cc(C)cc1C (configuration not stated) ?
inactive

Identify the outcome logged in this assay for the compound shown: Nc1nc2ccc([N+](=O)[O-])cc2s1
inactive

Dear all, I need the recorded test outcome for CC[C@]1(O)C[C@H]2CN(CCc3c([nH]c4ccccc34)[C@@](C(=O)OC)(c3cc4c(cc3OC)N(C=O)[C@H]3[C@@](O)(C(=O)OC)[C@H](OC(C)=O)[C@]5(CC)C=CCN6CC[C@]43[C@@H]65)C2)C1 , thank you.
inactive

Assay outcome for CN(C)CCN1C(=O)c2ccccc2N(C)c2ccccc21 : what was it?
inactive

Call for entry O=C(Cn1ccnc1[N+](=O)[O-])NCCO :
inactive

# fetch the recorded call for CC(CO)CO here
inactive

Record lookup: outcome of this test for CCCCCCCCC(CCCCCC)C(=O)O (configuration not stated) ?
inactive

Called result for O=C=Nc1ccc(Cl)c(Cl)c1
inactive

Dear colleague, could you share the recorded outcome for Cc1ccccc1N=C(N)Nc1ccccc1C when you have a moment?
inactive

Query: recorded result category for O=C(CCCN1CC=C(n2c(=O)[nH]c3ccccc32)CC1)c1ccc(F)cc1 in this test
inactive

GET /call?item= CCOC(=O)/C=C/C(=O)OCC returns the recorded outcome of this test.
inactive

For Cc1cccc(O)c1N , what call appears in the results of this test?
inactive

Recorded call for N#CCc1ccc(Cl)cc1Cl ?
inactive

For CC(O)c1ccccc1 (configuration not stated) , which call appears in the assay record?
inactive

Per the assay record, what outcome was assigned to CCCCCCC(C)(C)C(=O)O ?
inactive

Hi, sorry to bother you, what did the test record for CC(=O)NC1(c2cccc(F)c2)CCN(CC[C@@]2(c3ccc(Cl)c(Cl)c3)CN(c3ccccc3)C(=O)CO2)CC1 ?
active

Dear colleague, could you share the recorded outcome for C1C[C@@H]2[C@H]3CC[C@H](C3)[C@@H]2C1 when you have a moment?
inactive

Tell me the recorded outcome of this test for C=C/C(C)=C/C/C=C(\C)CCC=C(C)C .
inactive

Tell me the recorded outcome of this test for CCC(OCCCOC)OC(C)=O (configuration not stated) .
inactive

Look up the recorded call for CC(C)C(O)(c1ccc(OC(F)(F)F)cc1)c1cncnc1 (configuration not stated) in this test.
inactive

Dear all, I need the recorded test outcome for CC(C)C=O , thank you.
inactive

Status in this test for CCOC(=O)c1ccc(I)cc1 ?
inactive

Recorded test call requested for C=CCc1ccccc1OCC(O)CNC(C)C (configuration not stated)
inactive

Entry Cc1cc(C)c(N)cc1C : call = ?
inactive

Called result for C(=C\c1ccccc1)/c1ccccc1
inactive

Test call, this compound: CN1C(=O)N(c2ccccc2Br)Cc2cnc(Nc3ccc4c(c3)OCC(CO)O4)nc21 (configuration not stated)
active

What is the recorded call for this compound in the test? O=C(OC(=O)c1ccccc1)c1ccccc1
inactive

Record request — test call for CC(C)(C)C(=O)C(=O)O
inactive

Per the records of this test, what outcome belongs to O=C(O)CCCCCCCCCCCBr ?
inactive

Look up the recorded call for O=C(/C=C/c1ccccc1)OCCc1ccccc1 in this test.
inactive

Fill in: this test's call for O=C(O)c1cccc(-c2noc(-c3ccccc3F)n2)c1 is ___
inactive

Write down the call the test reported for this compound. Item: CO[C@]1(NC(=O)CSC(F)F)C(=O)N2C(C(=O)O)=C(CSc3nnnn3CCO)CO[C@H]21
inactive

What is the recorded call for this compound in the test? CC1(CN2CCC(n3c(=O)[nH]c4ccccc43)CC2)OCc2ccccc2-n2cccc21 (configuration not stated)
inactive

Could you check what this test reported for CCCC(=O)C(=O)O ?
inactive

Each compound tested received a call. Report the one for O=C1NCCN1CCO .
inactive

Assay result, entry CCC(=O)C1CC(C(C)C)CC=C1C (configuration not stated) — outcome?
inactive
